Values from paper PMC6572064

For each entry below, report its inhibition at 0.0152 µM value.
Test system: MDA-MB-436 (a BRCA-1-mutated breast cancer cell line)
EXPERIMENT_DESCRIPTION: Cell proliferation assay, three-day, CellTiter-Glo, MDA-MB-436
Type: cell-based
PROTOCOL_CONDITIONS: Homo sapiens, MDA-MB-436, MDA-MB-436, Conc. 0.0152 uM, replicate 2; read-out: Inh % 2
Unit % implied. Number only.

Please indicate inhibition at 0.0152 µM recorded for NC(=O)c1cccc2[nH]c(C3CCN(CC(=O)Nc4ccccc4)C3)nc12 (centres unmarked)
-6.8

Complete the entry with inhibition at 0.0152 µM for NC(=O)c1cccc2[nH]c(C3CCN(CCCNC(=O)c4ccccc4)C3)nc12 (centres unmarked)
-3.5

Quick one: give measured inhibition at 0.0152 µM for NC(=O)c1cccc2[nH]c(C3CCN(CCCC(=O)c4ccccc4)C3)nc12 (centres unmarked)
-6.4

Give inhibition at 0.0152 µM for the following molecule: NC(=O)c1cccc2[nH]c(C3CCN(CC(=O)c4ccccc4)C3)nc12 (centres unmarked)
-6.1

Hello, please tell me recorded inhibition at 0.0152 µM for this one: C[C@]1(c2nc3c(C(N)=O)cccc3[nH]2)CCCN1 [pc1, Veliparib, reference compound]
-6.6

====

Tested on: CAPAN-1 (a BRCA-2-mutated pancreatic cancer cell line)
EXPERIMENT_DESCRIPTION: Cell proliferation assay, three-day, CellTiter-Glo, CAPAN-1
Assay type: cell-based
PROTOCOL_CONDITIONS: Homo sapiens; CAPAN-1, Conc. 0.0457 uM, replicate 2; read-out: Inh % 2
READOUT_NAME: inhibition at 0.0457 µM (%)
Return type: number; implicit unit %.

Could you please provide reported inhibition at 0.0457 µM for NCCCN1CCC(c2nc3c(C(N)=O)cccc3[nH]2)C1 (stereo not shown) ? Thanks!
-10.3

Answer with reported inhibition at 0.0457 µM of NC(=O)c1cccc2[nH]c(C3CCN(CCCNC(=O)c4ccccc4)C3)nc12 (stereo not shown)
6.5

Give the value of inhibition at 0.0457 µM reported for the following: NCCN1CCC(c2nc3c(C(N)=O)cccc3[nH]2)C1 (stereo not shown)
-9.3

Give a short answer stating reported inhibition at 0.0457 µM for NC(=O)c1cccc2[nH]c(C3CCN(CCNC(=O)c4ccccc4)C3)nc12 (stereo not shown) .
10.6

Look up and state reported inhibition at 0.0457 µM for NC(=O)c1cccc2[nH]c(C3CCN(CCC(=O)c4ccccc4)C3)nc12 (stereo not shown)
-4.3

Specify reported inhibition at 0.0457 µM for the molecule shown: O=C(c1cc(Cc2n[nH]c(=O)c3ccccc23)ccc1F)N1CCN(C(=O)C2CC2)CC1 [pc2, Olaparib, reference compound]
0.662

Output inhibition at 0.0457 µM of C[C@]1(c2nc3c(C(N)=O)cccc3[nH]2)CCCN1 [pc1, Veliparib, reference compound]
3

====

System: MDA-MB-436 (a BRCA-1-mutated breast cancer cell line)
EXPERIMENT_DESCRIPTION: Cell proliferation assay, three-day, CellTiter-Glo, MDA-MB-436
Type: cell-based
PROTOCOL_CONDITIONS: Homo sapiens, MDA-MB-436, MDA-MB-436, Conc. 0.0457 uM, replicate 1; read-out: Inh % 1
Give inhibition at 0.0457 µM for every item shown.
Answer in %, number only, no unit symbol.

State, in one line, measured inhibition at 0.0457 µM of NC(=O)c1cccc2[nH]c(C3CCN(CC(O)c4ccccc4)C3)nc12 (centres unmarked)
-8.5

Tell us which inhibition at 0.0457 µM value is on record for NCCCN1CCC(c2nc3c(C(N)=O)cccc3[nH]2)C1 (centres unmarked)
-13.5

Look up and state reported inhibition at 0.0457 µM for NC(=O)c1cccc2[nH]c(C3CCN(CCC(=O)c4ccc(Cl)cc4)C3)nc12 (centres unmarked)
-14.2

Tell me inhibition at 0.0457 µM reported for NC(=O)c1cccc2[nH]c(C3CCN(CCC(=O)c4ccccc4)C3)nc12 (centres unmarked)
-13.1

Given the molecule O=C(c1cc(Cc2n[nH]c(=O)c3ccccc23)ccc1F)N1CCN(C(=O)C2CC2)CC1 [pc2, Olaparib, reference compound] , write its reported inhibition at 0.0457 µM.
-5.7

Please report the measured inhibition at 0.0457 µM for NC(=O)c1cccc2[nH]c(C3CCN(CCCNC(=O)c4ccccc4)C3)nc12 (centres unmarked)
-9.2

Indicate its recorded inhibition at 0.0457 µM; the molecule in question is NC(=O)c1cccc2[nH]c(C3CCN(CC(=O)Nc4ccccc4)C3)nc12 (centres unmarked)
-1.6

Fill in inhibition at 0.0457 µM for record NC(=O)c1cccc2[nH]c(C3CCN(CCNC(=O)c4ccccc4)C3)nc12 (centres unmarked)
-7.2

// fetch inhibition at 0.0457 µM given entry NC(=O)c1cccc2[nH]c(C3CCN(CCCN4C(=O)c5ccccc5C4=O)C3)nc12 (centres unmarked)
-11.2

# return recorded inhibition at 0.0457 µM for entry NC(=O)c1cccc2[nH]c(C3CCN(CCC(=O)Nc4ccccc4)C3)nc12 (centres unmarked)
-12.9

Report measured inhibition at 0.0457 µM; entry is NC(=O)c1cccc2[nH]c(C3CCN(CCCNc4ccccc4)C3)nc12 (centres unmarked)
-14.2

Give recorded inhibition at 0.0457 µM. NC(=O)c1cccc2[nH]c(C3CCN(CCCC(=O)c4ccccc4)C3)nc12 (centres unmarked)
-12.8

For the molecule NCCN1CCC(c2nc3c(C(N)=O)cccc3[nH]2)C1 (centres unmarked) , give its reported inhibition at 0.0457 µM.
-11.2

Respond only with inhibition at 0.0457 µM recorded for C[C@]1(c2nc3c(C(N)=O)cccc3[nH]2)CCCN1 [pc1, Veliparib, reference compound]
-7.5

Kindly indicate its recorded inhibition at 0.0457 µM. Item: NC(=O)c1cccc2[nH]c(C3CCN(CCN4C(=O)c5ccccc5C4=O)C3)nc12 (centres unmarked)
-9.3

Please look at this molecule and report its inhibition at 0.0457 µM: NC(=O)c1cccc2[nH]c(C3CCN(CC(=O)c4ccccc4)C3)nc12 (centres unmarked)
-6.8

Dear colleague, please send me the reported inhibition at 0.0457 µM for COc1ccc(C(=O)CCN2CCC(c3nc4c(C(N)=O)cccc4[nH]3)C2)cc1 (centres unmarked) when you can.
-8.5
